Target Of Assay: Ste12 (UniProt P13574)
Sequence (P13574 whole entry): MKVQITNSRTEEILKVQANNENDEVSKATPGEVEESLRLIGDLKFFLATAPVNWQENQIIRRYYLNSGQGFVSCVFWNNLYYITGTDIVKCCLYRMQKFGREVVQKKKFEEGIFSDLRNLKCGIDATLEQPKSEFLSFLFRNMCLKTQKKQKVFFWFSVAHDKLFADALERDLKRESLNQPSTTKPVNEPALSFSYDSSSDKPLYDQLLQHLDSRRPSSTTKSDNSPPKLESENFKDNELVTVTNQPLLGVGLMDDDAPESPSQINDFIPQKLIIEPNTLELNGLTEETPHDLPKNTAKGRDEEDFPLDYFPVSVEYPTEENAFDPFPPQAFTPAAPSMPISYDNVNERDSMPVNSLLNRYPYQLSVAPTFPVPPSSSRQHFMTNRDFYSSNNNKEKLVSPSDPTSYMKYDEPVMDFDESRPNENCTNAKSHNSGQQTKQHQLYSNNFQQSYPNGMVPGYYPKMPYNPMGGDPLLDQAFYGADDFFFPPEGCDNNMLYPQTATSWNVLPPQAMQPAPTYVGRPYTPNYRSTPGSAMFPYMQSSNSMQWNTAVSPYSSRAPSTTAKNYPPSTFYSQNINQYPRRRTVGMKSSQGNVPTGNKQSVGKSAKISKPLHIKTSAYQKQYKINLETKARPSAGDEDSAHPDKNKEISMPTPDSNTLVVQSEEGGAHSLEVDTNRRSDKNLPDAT
Protocol Text: PBM E-score (8-mer binding enrichment) (E-score (-0.5 to 0.5)); higher = stronger / more preferred TF binding
Measurement Context: protein concentration: 200 nM; construct: GST-DNA-binding domain
In all, about 33,000 sequences were measured (“E-score (-0.5 to 0.5)”: median about -0.01, highest 2% from about 0.26 on). This excerpt belongs to a sample that is enriched for the highest values.
Recorded PBM E-score by entry

- Sequence Entry: "ACAAAACG"
  PBM E-score: 0.35
- Sequence Entry: "GGGGCGGA"
  PBM E-score: 0.404
- Sequence Entry: "GGCCCGCC"
  PBM E-score: 0.0329
- Sequence Entry: "GTGATCGA"
  PBM E-score: 0.161
- Sequence Entry: "CTTATAAA"
  PBM E-score: 0.223
- Sequence Entry: "TCAGTCAA"
  PBM E-score: -0.0289
- Sequence Entry: "ACGGAGTG"
  PBM E-score: -0.043
- Sequence Entry: "TAGTTTAA"
  PBM E-score: 0.171
- Sequence Entry: "CTTGAAAA"
  PBM E-score: 0.157
- Sequence Entry: "GGTGTTGA"
  PBM E-score: -0.0828
- Sequence Entry: "CTCAAGGA"
  PBM E-score: -0.181
- Sequence Entry: "TAAATAAA"
  PBM E-score: 0.228
- Sequence Entry: "TTAACAAA"
  PBM E-score: 0.246
- Sequence Entry: "AGGGCGGA"
  PBM E-score: -0.248
- Sequence Entry: "CAGTTTCA"
  PBM E-score: 0.374
- Sequence Entry: "AAATAAAG"
  PBM E-score: 0.172
- Sequence Entry: "CCCTCCTC"
  PBM E-score: 0.0435
- Sequence Entry: "AGTTTGCG"
  PBM E-score: 0.122
- Sequence Entry: "CCCCCGCC"
  PBM E-score: -0.0801
- Sequence Entry: "AAATTGTA"
  PBM E-score: 0.048
- Sequence Entry: "CCTTTACA"
  PBM E-score: -0.103
- Sequence Entry: "ATTTTATA"
  PBM E-score: 0.199
- Sequence Entry: "CAAACAAA"
  PBM E-score: 0.149
- Sequence Entry: "CGCTGAGC"
  PBM E-score: -0.154
- Sequence Entry: "AGAACAAG"
  PBM E-score: 0.0467
- Sequence Entry: "AAGTTTTA"
  PBM E-score: 0.287
- Sequence Entry: "AAATAAAA"
  PBM E-score: 0.291
- Sequence Entry: "GTTTTATA"
  PBM E-score: 0.399
- Sequence Entry: "GAGATCTC"
  PBM E-score: -0.14
- Sequence Entry: "AGAACAAT"
  PBM E-score: 0.247
- Sequence Entry: "AGCAGGTG"
  PBM E-score: -0.0318
- Sequence Entry: "AGGGCGTA"
  PBM E-score: -0.176
- Sequence Entry: "GTGGAGGA"
  PBM E-score: -0.0464
- Sequence Entry: "TAGTTTGA"
  PBM E-score: 0.0916
- Sequence Entry: "AAGTTTTC"
  PBM E-score: 0.0212
- Sequence Entry: "AGCTAGAA"
  PBM E-score: -0.0198
- Sequence Entry: "AGAACAAA"
  PBM E-score: 0.312
- Sequence Entry: "AGGTGAAA"
  PBM E-score: 0.235
- Sequence Entry: "GTCGCGAC"
  PBM E-score: 0.389
- Sequence Entry: "GCCCCGCC"
  PBM E-score: 0.33
- Sequence Entry: "CGCCGTCA"
  PBM E-score: 0.0459
- Sequence Entry: "AAAAACCG"
  PBM E-score: 0.178
- Sequence Entry: "AAATTGTC"
  PBM E-score: 0.268
- Sequence Entry: "CCTCTTTC"
  PBM E-score: -0.0876
- Sequence Entry: "TAGAGAAA"
  PBM E-score: 0.0197
- Sequence Entry: "AAGGTCCC"
  PBM E-score: -0.279
- Sequence Entry: "TTTATAAA"
  PBM E-score: 0.271
- Sequence Entry: "CGATTAAA"
  PBM E-score: 0.073
- Sequence Entry: "CCCTCCCC"
  PBM E-score: 0.333
- Sequence Entry: "GAAACAAA"
  PBM E-score: 0.345
- Sequence Entry: "ATAGAGCC"
  PBM E-score: -0.0936
- Sequence Entry: "GTTGAAAC"
  PBM E-score: 0.399
- Sequence Entry: "AGAAAACG"
  PBM E-score: 0.0569
- Sequence Entry: "GAGTAAGC"
  PBM E-score: -0.0348
- Sequence Entry: "AAAATAAA"
  PBM E-score: 0.286
- Sequence Entry: "AAAACCTT"
  PBM E-score: 0.142
- Sequence Entry: "AGCATCTG"
  PBM E-score: -0.159
- Sequence Entry: "TAAACAAA"
  PBM E-score: 0.244
- Sequence Entry: "CAAAGTCG"
  PBM E-score: 0.0234
- Sequence Entry: "GTTCGCTA"
  PBM E-score: -0.0318
- Sequence Entry: "AACTTTTA"
  PBM E-score: 0.228
- Sequence Entry: "TGTGAAAA"
  PBM E-score: 0.216
- Sequence Entry: "GGGTGGAC"
  PBM E-score: -0.226
- Sequence Entry: "CTAACAAA"
  PBM E-score: 0.0819
- Sequence Entry: "CGTTAGGC"
  PBM E-score: -0.0275
- Sequence Entry: "GGTAGAAC"
  PBM E-score: -0.101
- Sequence Entry: "GCGATGCA"
  PBM E-score: -0.234
- Sequence Entry: "TTTGAAAA"
  PBM E-score: 0.309
- Sequence Entry: "CACGCGTG"
  PBM E-score: 0.221
- Sequence Entry: "AAGTTTCA"
  PBM E-score: 0.437
- Sequence Entry: "TGATTAAA"
  PBM E-score: 0.158
- Sequence Entry: "CCAGCAAG"
  PBM E-score: -0.148
- Sequence Entry: "AAAAACCC"
  PBM E-score: 0.0736
- Sequence Entry: "GCCCTCCC"
  PBM E-score: 0.115
- Sequence Entry: "CAGTTTCC"
  PBM E-score: 0.0749
- Sequence Entry: "CTACCCTC"
  PBM E-score: -0.0776
- Sequence Entry: "CCCCTACC"
  PBM E-score: 0.0111
- Sequence Entry: "CTTTTACC"
  PBM E-score: 0.0888
- Sequence Entry: "CAAAAACG"
  PBM E-score: 0.177
- Sequence Entry: "GAATTAAC"
  PBM E-score: 0.00892
- Sequence Entry: "GGAGTAGA"
  PBM E-score: -0.0759
- Sequence Entry: "ATGGCCGC"
  PBM E-score: -0.0598
- Sequence Entry: "CAATTGAA"
  PBM E-score: 0.187
- Sequence Entry: "ACAACAAA"
  PBM E-score: 0.152
- Sequence Entry: "CAACGAAA"
  PBM E-score: 0.13
- Sequence Entry: "GAGTTGTA"
  PBM E-score: -0.0493
- Sequence Entry: "ACAAAACC"
  PBM E-score: 0.171
- Sequence Entry: "ACCCCGCC"
  PBM E-score: 0.41
- Sequence Entry: "AAGTTTCC"
  PBM E-score: 0.11
- Sequence Entry: "AAACGAAA"
  PBM E-score: 0.248
- Sequence Entry: "AAGTTTTG"
  PBM E-score: 0.116
